- assay-summary: Solubility test of crystal form A in different solvents
- Type: physicochemical
- assay-context: aqueous with cosolvent or surfactant or cyclodextrin, thermodynamic from solid; solvent: Ethanol-water (3:1)
metric-name: solubility

Form: compound = CCn1nnc(-c2ccc(OCCC(C)(C)CCN3CCN(c4ccnc(N)c4)S3(=O)=O)nc2)n1 [Compound 1] ; solubility = < 2320 µg/mL

---

- assay-summary: Solubility test of crystal form B in different solvents
- Type: physicochemical
- assay-context: aqueous buffer, thermodynamic from solid; pH 5.5 buffer solution, 24 h; read-out: Solubility (mg/mL) 24 h
metric-name: solubility at 24 h

Form: compound = CCn1nnc(-c2ccc(OCCC(C)(C)CCN3CCN(c4ccnc(N)c4)S3(=O)=O)nc2)n1 [Compound 2] ; solubility at 24 h = < 0.1 mg/mL

---

- assay-summary: Solubility test of crystal form A in different solvents
- Type: physicochemical
- assay-context: organic solvent or mixture, thermodynamic from solid; solvent: acetone
metric-name: solubility

Form: molecule = CCn1nnc(-c2ccc(OCCC(C)(C)CCN3CCN(c4ccnc(N)c4)S3(=O)=O)nc2)n1 ; solubility = 5580 to 7430 µg/mL

---

- assay-summary: Solubility test of crystal form A in different solvents
- Assay type: physicochemical
- assay-context: aqueous with cosolvent or surfactant or cyclodextrin, thermodynamic from solid; solvent: Acetone-water (3:1)
metric-name: solubility

Form: compound = CCn1nnc(-c2ccc(OCCC(C)(C)CCN3CCN(c4ccnc(N)c4)S3(=O)=O)nc2)n1 [Compound 1] ; solubility = < 2240 µg/mL

---

- assay-summary: Solubility test of crystal form B in different solvents
- Type: physicochemical
- assay-context: saline or isotonic, thermodynamic from solid; normal saline, 24 h; read-out: Solubility (mg/mL) 24 h
metric-name: solubility at 24 h (mg/mL)
State just the number; it will be interpreted in mg/mL.

Form: molecule = CCn1nnc(-c2ccc(OCCC(C)(C)CCN3CCN(c4ccnc(N)c4)S3(=O)=O)nc2)n1 ; solubility at 24 h = 43.4

---

- assay-summary: Solubility test of crystal form B in different solvents
- Type: physicochemical
- assay-context: aqueous buffer, thermodynamic from solid; pH 6.8 buffer solution, 4 h; read-out: Solubility (mg/mL) 4 h
metric-name: solubility at 4 h

Form: compound = CCn1nnc(-c2ccc(OCCC(C)(C)CCN3CCN(c4ccnc(N)c4)S3(=O)=O)nc2)n1 [Compound 2] ; solubility at 4 h = < 0.1 mg/mL
